- ASSAY TARGET: Human VEGFR-2 (Homo sapiens)
- Sequence (P35968 20-1356): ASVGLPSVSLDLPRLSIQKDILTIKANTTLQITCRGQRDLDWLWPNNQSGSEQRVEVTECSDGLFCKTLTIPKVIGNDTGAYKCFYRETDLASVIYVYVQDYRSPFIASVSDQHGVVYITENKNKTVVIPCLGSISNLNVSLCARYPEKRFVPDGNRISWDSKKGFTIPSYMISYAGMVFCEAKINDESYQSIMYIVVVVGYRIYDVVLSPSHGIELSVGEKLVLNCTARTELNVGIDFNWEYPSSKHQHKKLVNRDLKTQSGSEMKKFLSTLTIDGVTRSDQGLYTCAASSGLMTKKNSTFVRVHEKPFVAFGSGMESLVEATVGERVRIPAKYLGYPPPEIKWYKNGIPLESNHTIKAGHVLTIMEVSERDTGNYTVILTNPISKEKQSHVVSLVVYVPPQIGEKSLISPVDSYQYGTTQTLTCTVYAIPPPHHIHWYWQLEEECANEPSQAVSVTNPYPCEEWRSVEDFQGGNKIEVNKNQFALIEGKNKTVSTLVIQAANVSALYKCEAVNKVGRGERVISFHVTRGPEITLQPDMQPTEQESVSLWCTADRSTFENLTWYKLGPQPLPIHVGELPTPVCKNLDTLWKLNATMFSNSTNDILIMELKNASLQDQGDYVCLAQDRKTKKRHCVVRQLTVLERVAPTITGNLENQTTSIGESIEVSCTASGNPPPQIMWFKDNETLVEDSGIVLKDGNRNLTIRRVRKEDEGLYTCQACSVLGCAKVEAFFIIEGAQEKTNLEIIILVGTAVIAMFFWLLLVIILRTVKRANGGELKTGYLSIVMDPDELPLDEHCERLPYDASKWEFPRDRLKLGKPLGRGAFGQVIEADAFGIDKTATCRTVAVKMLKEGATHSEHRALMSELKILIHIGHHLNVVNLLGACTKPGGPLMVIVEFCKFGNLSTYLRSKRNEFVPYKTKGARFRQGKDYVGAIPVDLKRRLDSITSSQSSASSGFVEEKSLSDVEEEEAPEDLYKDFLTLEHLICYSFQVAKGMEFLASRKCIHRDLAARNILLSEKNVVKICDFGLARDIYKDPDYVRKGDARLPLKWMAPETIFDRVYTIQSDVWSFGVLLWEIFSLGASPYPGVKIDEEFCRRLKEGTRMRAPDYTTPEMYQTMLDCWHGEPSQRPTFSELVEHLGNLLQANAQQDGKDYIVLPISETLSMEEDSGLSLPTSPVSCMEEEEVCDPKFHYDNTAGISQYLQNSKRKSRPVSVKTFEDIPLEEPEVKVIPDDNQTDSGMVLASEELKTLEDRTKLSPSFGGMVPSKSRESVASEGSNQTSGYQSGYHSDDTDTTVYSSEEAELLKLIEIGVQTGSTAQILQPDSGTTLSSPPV
ASSAY ENDPOINT: IC50 (nM)
Answer in nM, number only, no unit symbol.

Value lookup for IC50; key = CC(=O)Nc1ccc(/C=C/C(=O)c2cccc(NCc3ccc(C)cc3)c2)cc1
890

Value lookup for IC50; key = O=C(/C=C/c1cccnc1)c1cccc(NCc2csc3ccccc23)c1
1460

Value lookup for IC50; key = CC(=O)Nc1ccc(/C=C/C(=O)c2cccc(NCc3csc4ccccc34)c2)cc1
660

Value lookup for IC50; key = COc1ccc(CNc2cccc(C(=O)/C=C/c3cccnc3)c2)cc1OC
960

Value lookup for IC50; key = CC(=O)Nc1ccc(/C=C/C(=O)c2cccc(NCc3ccc(NC(C)=O)cc3)c2)cc1
470

Value lookup for IC50; key = CC(=O)Nc1ccc(/C=C/C(=O)c2cccc(NCc3ccc(CO)cc3)c2)cc1
820

Value lookup for IC50; key = COc1ccc(CNc2cccc(C(=O)/C=C/c3ccc(NC(C)=O)cc3)c2)cc1OC
310

Value lookup for IC50; key = O=C(/C=C/c1cccnc1)c1cccc(NCc2ccc(CO)cc2)c1
370

Value lookup for IC50; key = CC(=O)Nc1ccc(CNc2cccc(C(=O)/C=C/c3cccnc3)c2)cc1
1770

Value lookup for IC50; key = Cc1ccc(CNc2cccc(C(=O)/C=C/c3cccnc3)c2)cc1
2000
